tested on: Staphylococcus aureus; test: Antibacterial activity against methicillin-resistant Staphylococcus aureus ATCC 33591 by broth microdilution method; assay type: functional
Form field: MIC (one value per entry).

CC[C@H]1OC(=O)[C@H](C)C(=O)[C@H](C)[C@@H](O[C@@H]2O[C@H](C)C[C@H](N(C)C)[C@H]2O)[C@](C)(OC)C[C@@H](C)C(=O)[C@H](C)[C@H]2N(CCCCn3cnc(-c4cccnc4)c3)C(=O)O[C@]12C | > 256 µg/mL
CC[C@H]1OC(=O)[C@@](C)(F)C(=O)[C@H](C)[C@@H](O[C@@H]2O[C@H](C)C[C@H](N(C)C)[C@H]2O)[C@](C)(OC)C[C@@H](C)C(=O)[C@H](C)[C@H]2N(CCCOc3cnc4ccccc4c3)C(=O)O[C@]12C | 64 µg/mL
CC[C@H]1OC(=O)[C@H](C)[C@@H](O[C@H]2C[C@@](C)(OC)[C@@H](O)[C@H](C)O2)[C@H](C)[C@@H](O[C@@H]2O[C@H](C)C[C@H](N(C)C)[C@H]2O)[C@](C)(OC)C[C@@H](C)C(=O)[C@H](C)[C@@H](O)[C@]1(C)O | > 256 µg/mL
CC[C@H]1OC(=O)[C@H](C)C(=O)[C@H](C)[C@@H](O[C@@H]2O[C@H](C)C[C@H](N(C)C)[C@H]2O)[C@](C)(OC)C[C@@H](C)C(=O)[C@H](C)[C@H]2N(CC/C=C/c3cncc4ccc(-c5ccccc5)cc34)C(=O)O[C@]12C | 4 µg/mL

Continue with the molecule presented below.
Asked: Tell me its MIC given CC[C@H]1OC(=O)[C@H](C)C(=O)[C@H](C)[C@@H](O[C@@H]2O[C@H](C)C[C@H](N(C)C)[C@H]2O)[C@](C)(OC)C[C@@H](C)C(=O)[C@H](C)[C@H]2N(CC/C=C/c3cncc4ccccc34)C(=O)O[C@]12C as the entry.
Given back: 64 µg/mL
